Data credit: patent US7741348B2

Please go through the items and note down their CC50.
- procedure_text: Cytotoxicity to HepG2.2.15 cells (MTT method)
- Assay type: cell-based
- run_parameters: human, HepG2.2.15 cells (HBV-transgenic human hepatoma cells), 50% death concentration, eighth day

The following compounds have reported results that may help.
compound	endpoint_value
CCOC(=O)c1nc(-c2cccs2)oc1C1CCCCC1 [Compound C305-1]	> 100 µM
CCOC(=O)c1nc(-c2nccs2)[nH]c1C1CCCCC1 [Compound C305-2]	> 100 µM

[ask] Find the recorded CC50 belonging to CCOC(=O)c1nc(-c2cc3ccccc3s2)[nH]c1CC(C)C [Compound C328] and report it.
[reply] > 7.5 µM
